Numbers sourced from patent US7220875B2.

# % of Propofol Released from Propofol Prodrugs after 60 min. values compiled below
- protocol.text: Caco-2 homogenate S9 stability
- Assay type: in vitro ADME
- test.conditions: Caco-2 S9 (0.5 mg protein per mL), prodrug 5 μM, 37° C.
Reply with just the number (in %).

Known % of Propofol Released from Propofol Prodrugs after 60 min. results, listed for orientation:
# compound, reported
measured = [
    ("CC(C)c1cccc(C(C)C)c1OC(=O)OC[C@H](NC(=O)[C@H](C)N)C(=O)O [Compound 161, H-Ala-Ser(β-OC(O)OPropofol)-OH]", 20),
    ("CC(C)c1cccc(C(C)C)c1OC(=O)C[C@H](NC(=O)[C@@H](N)Cc1ccc(O)cc1)C(=O)O [Compound 122, H-Tyr-Asp(OPropofol)-OH]", 0),
    ("CC(C)c1cccc(C(C)C)c1OC(=O)CC[C@H](NC(=O)[C@@H](N)CC(N)=O)C(=O)O [Compound 124, H-Asn-Glu(OPropofol)-OH]", 0),
    ("CSCC[C@H](N)C(=O)N[C@@H](CC(=O)Oc1c(C(C)C)cccc1C(C)C)C(=O)O [Compound 121, H-Met-Asp(OPropofol)-OH]", 0),
]

IN: Given the entry CC(C)c1cccc(C(C)C)c1OC(=O)C[C@H](NC(=O)[C@H](C)N)C(=O)O [Compound 107, H-Ala-Asp(OPropofol)-OH] , report its measured % of Propofol Released from Propofol Prodrugs after 60 min..
OUT: 4

IN: Given the entry CC(C)c1cccc(C(C)C)c1OC(=O)CC[C@H](N)C(=O)N[C@@H](C)C(=O)O [Compound 138, H-Glu(OPropofol)-Ala-OH] , report its measured % of Propofol Released from Propofol Prodrugs after 60 min..
OUT: 3
